Test: Selectivity index, ratio of CC50 for human MT4 cells to EC50 for wild-type HIV1 3B infected in MT4 cells
Assay type: toxicity, cell-based
Conditions: read-out: Ratio CC50/EC50
metric name: selectivity ratio

Use these answered entries as a reference point.
1. COc1ccnc(Nc2ccc(Cl)c(OCc3cccc(Br)c3)c2)n1
> 393
2. COc1ccnc(Nc2ccc(Cl)c(OCc3ccc(Cl)c(Cl)c3)c2)n1
> 1
3. COc1ccnc(Nc2ccc(Cl)c(OCc3ccc(Cl)cc3Cl)c2)n1
< 1
4. COc1ccc(COc2cc(Nc3nccc(OC)n3)ccc2Cl)cc1
≥ 37
5. COC(=O)c1ccc(COc2cc(Nc3nccc(OC)n3)ccc2Cl)cc1
< 1

**Query** Form field: reported selectivity ratio of COc1ccnc(Nc2ccc(Cl)c(OCc3cccc(Cl)c3)c2)n1
**Result** > 1460

// provenance: ChEMBL document CHEMBL3091296
